Attribute: IC90
tested on: Plasmodium berghei; assay: Luciferase/luciferin-expressing antifolate-resistant parasites were used to infect a culture of HepG2 cells that were pre-incubated with compounds. Infected hepatocytes emit light due to the luciferase reaction. Assay results are presented as the percent inhibition of light emission compared to control. […]; assay type: functional; settings: sporozoite, read-out: LUCIFERASE INFECTION ASSAY - IC90
MEASURE: IC90

O=C(Nc1ccccc1)c1ccc(CN2C(=O)NC(c3ccccc3)(c3ccccc3)C2=O)cc1	3.94 µM
CCCc1ccc(-c2nc(NC(=O)CCc3ccsc3)sc2C)cc1	> 10 µM
N#Cc1c(N)nc(Sc2ccc(Cl)cc2)c(C#N)c1-c1ccccc1Cl	> 8.31 µM
CCCCNC(=O)c1c(NC(=O)COc2ccccc2)nc2ccc(C)cn12	8.47 µM
CC(C)(C)C(=O)N1CCC(C(=O)N(Cc2ccccc2)c2nc3c(s2)CCCC3)CC1	> 10 µM
COc1ccc2cc(C(C)C(=O)N3CCN(S(=O)(=O)/C=C/c4ccccc4)CC3)ccc2c1 (stereo not given)	> 10 µM
Cc1ccc(NC(=O)c2csc(Cc3c(Cl)cccc3Cl)n2)cc1	> 8.75 µM
O=C(NC(=O)c1csnn1)Nc1cc(C(F)(F)F)cc(C(F)(F)F)c1	2.08 µM
COc1cc(C(=O)OCC#N)ccc1OCc1c(C)noc1C	> 10 µM
CCOC(=O)c1cnc2cc(Cl)c(F)cc2c1Sc1ccc(Cl)cc1	> 8.33 µM

###

test system: Plasmodium berghei; experiment: Luciferase/luciferin-expressing antifolate-resistant parasites were used to infect a culture of HepG2 cells that were pre-incubated with compounds. Infected hepatocytes emit light due to the luciferase reaction. Assay results are presented as the percent inhibition of light emission compared to control. […]; format: functional; details: sporozoite, PBLUC_HILL_SLOPE 2.33, PBLUC_R_SQUARED 0.497, read-out: LUCIFERASE INFECTION ASSAY - IC50
pIC50: −log10 of the molar value.
MEASURE: pIC50

COc1cccc(Nc2nccc3nc(-c4cccc(C(F)(F)F)c4)[nH]c23)c1	5.38

###

tested on: Plasmodium berghei; assay: Luciferase/luciferin-expressing antifolate-resistant parasites were used to infect a culture of HepG2 cells that were pre-incubated with compounds. Infected hepatocytes emit light due to the luciferase reaction. Assay results are presented as the percent inhibition of light emission compared to control. […]; format: functional; details: sporozoite, HEPG2TOX_HILL_SLOPE 1.54, HEPG2TOX_R_SQUARED 0.3, PBLUC_HILL_SLOPE 1.66, PBLUC_R_SQUARED 0.0862, read-out: LUCIFERASE INFECTION ASSAY - IC50
MEASURE: IC50 (µM)

O=[N+]([O-])c1ccccc1CS(=O)(=O)c1nc2ccccc2s1	5.91

###

system: Plasmodium berghei; assay: Luciferase/luciferin-expressing antifolate-resistant parasites were used to infect a culture of HepG2 cells that were pre-incubated with compounds. Infected hepatocytes emit light due to the luciferase reaction. Assay results are presented as the percent inhibition of light emission compared to control. […]; type: functional; conditions: sporozoite, HEPG2TOX_HILL_SLOPE 17, HEPG2TOX_R_SQUARED 0.823, PBLUC_HILL_SLOPE 14.3, PBLUC_R_SQUARED 0.731, read-out: LUCIFERASE INFECTION ASSAY - IC50
MEASURE: IC50 (µM)

CN1CCN(c2ccc(-c3cn4c(-c5ccc6ncccc6c5)cnc4cn3)cc2)CC1	6.63

###

system: Plasmodium berghei; experiment: Luciferase/luciferin-expressing antifolate-resistant parasites were used to infect a culture of HepG2 cells that were pre-incubated with compounds. Infected hepatocytes emit light due to the luciferase reaction. Assay results are presented as the percent inhibition of light emission compared to control. […]; assay type: functional; details: sporozoite, FFLUC_HILL_SLOPE 12.1, FFLUC_R_SQUARED 0.705, read-out: LUCIFERASE INFECTION ASSAY - IC50
pIC50: −log10 of the molar value.
MEASURE: pIC50

O=C(CCc1ccc(-c2ccccc2)o1)Nc1nc(-c2ccccn2)cs1	< 5.00

###

tested on: Plasmodium berghei; test: Luciferase/luciferin-expressing antifolate-resistant parasites were used to infect a culture of HepG2 cells that were pre-incubated with compounds. Infected hepatocytes emit light due to the luciferase reaction. Assay results are presented as the percent inhibition of light emission compared to control. […]; format: functional; details: sporozoite, FFLUC_HILL_SLOPE 4, FFLUC_R_SQUARED 0.164, HEPG2TOX_HILL_SLOPE 6.65, HEPG2TOX_R_SQUARED 0.57, PBLUC_HILL_SLOPE 11, PBLUC_R_SQUARED 0.696, read-out: LUCIFERASE INFECTION ASSAY - IC50
pIC50: −log10 of the molar value.
MEASURE: pIC50

C=CCNc1sc(C(=O)/C(C#N)=C2\Nc3ccccc3S2)c(N)c1C(=O)Nc1ccc(Cl)cc1	5.47

###

tested on: Plasmodium berghei; assay: Luciferase/luciferin-expressing antifolate-resistant parasites were used to infect a culture of HepG2 cells that were pre-incubated with compounds. Infected hepatocytes emit light due to the luciferase reaction. Assay results are presented as the percent inhibition of light emission compared to control. […]; format: functional; conditions: sporozoite, read-out: LUCIFERASE INFECTION ASSAY - IC90
MEASURE: IC90

CCOC(=O)c1cc(-c2ccccc2)sc1NC(=O)CSc1nnc(-c2cccnc2)n1-c1ccccc1C	> 10 µM
CC(C)CNc1nn2c(-c3ccc(O)cc3)cnc2s1	> 11.4 µM
CN(CC(=O)Nc1ccc(-c2nc3ccccc3[nH]2)cc1)S(=O)(=O)c1cccs1	> 10 µM
Cc1ccc(S(=O)(=O)N2CCN(CC(=O)N3N=C4/C(=C/c5cccs5)CCCC4C3c3cccs3)CC2)cc1 (stereo not given)	4.41 µM
O=C(NC1CCOc2ccccc21)c1ccccc1Oc1ccccc1 (stereo not given)	> 10 µM
Cc1cc(C(=O)CSc2nnc(Cc3cccc4ccccc34)n2C2CCCCC2)c(C)n1CC(F)(F)F	> 10 µM
CC(C)NC(=O)c1c(NC(=O)c2ccc(Cl)cc2Cl)nc2ccccn12	3.78 µM
COc1cccc(-c2[nH]nc3ccnc(-c4ccc(C(C)C)cc4)c23)c1	> 10 µM
Cc1c(Cl)cn2c(=O)cc(CN3CCN(c4ccccc4)CC3)nc2c1Cl	> 10 µM
CCCNc1nccn2c(-c3ccc(C(=O)NC4CC4)cc3)cnc12	7.31 µM

###

tested on: Plasmodium berghei; test: Luciferase/luciferin-expressing antifolate-resistant parasites were used to infect a culture of HepG2 cells that were pre-incubated with compounds. Infected hepatocytes emit light due to the luciferase reaction. Assay results are presented as the percent inhibition of light emission compared to control. […]; format: functional; settings: sporozoite, FFLUC_HILL_SLOPE 13, FFLUC_R_SQUARED 0.6, read-out: LUCIFERASE INFECTION ASSAY - IC50
MEASURE: IC50

O=S(=O)(/N=C(\N/N=C/c1ccc(Cl)cc1)N1CCCC1)c1ccc(-n2nc(C(F)(F)F)cc2-c2cccs2)cc1	> 5.44 µM

###

test system: Plasmodium berghei; assay: Luciferase/luciferin-expressing antifolate-resistant parasites were used to infect a culture of HepG2 cells that were pre-incubated with compounds. Infected hepatocytes emit light due to the luciferase reaction. Assay results are presented as the percent inhibition of light emission compared to control. […]; format: functional; conditions: sporozoite, read-out: LUCIFERASE INFECTION ASSAY - IC90
MEASURE: IC90

Cc1cc(C)c(CSCCNC2=CC(=O)CC(c3ccc(Cl)cc3)C2)c(C)c1 (configuration not stated)	> 7.97 µM
N#CCOc1cc(Cl)cc(Cl)c1	> 16.3 µM
Cc1cc(NC(=O)COC(=O)CCCOc2ccc(Cl)cc2C)no1	> 10 µM
COc1ccc(S(=O)(=O)N(CC(=O)c2cc(C)n(-c3ccc(Cl)cc3)c2C)Cc2ccccc2)cc1	> 10 µM
O=c1cc(N2CCN(CCOc3ccccc3Cl)CC2)nc2ccccn12	> 10 µM
COc1cc(/C=N/Nc2c(Cl)c(Cl)nc(C(=O)O)c2Cl)cc(OC)c1OC	> 10 µM
Cc1noc(C)c1COc1ccc(C(=O)OCC(=O)NC(C)C23CC4CC(CC(C4)C2)C3)cc1 (configuration not stated)	> 10 µM
CC(C)Cc1ccc(C(=O)CC(Sc2ccccc2N)c2cccc([N+](=O)[O-])c2)cc1 (configuration not stated)	2.86 µM
CC(=O)Nc1ccc(/C=C2\COc3c(Cl)cc(Cl)cc3C2=O)cc1	> 10 µM
Cc1ccc(-n2nc(C)c(/C=C3\SC(=S)N(c4ccc(C(=O)O)cc4)C3=O)c2Cl)c(C)c1	> 10 µM
CCCN1C(=O)/C(=N\OCC(=O)c2cc(C)n(Cc3cccs3)c2C)c2ccccc21	> 10 µM
O=C(/C=C/c1ccncc1)Nc1ccc(Oc2ccccc2)cc1	6.66 µM
Cc1ccc(NNC(=O)c2cc3ccccc3o2)cc1Cl	> 10 µM
CCOC(=O)c1ccccc1NC(=O)C1CCN(c2ncnc3sc(C)c(C)c23)CC1	> 10 µM
FC(F)(F)/C(=N\C1(C(Cl)(Cl)Cl)Oc2ccccc2O1)NCc1ccco1	> 10 µM
Cc1cc(C(=O)N(C(=O)NC2CCCCC2)C2CCCCC2)c(C)n1-c1ccccc1	8.67 µM
CNC(=O)c1ccc(CN(C2CC2)S(=O)(=O)c2cc([N+](=O)[O-])cc(C)c2C)cc1	> 10 µM
Cc1nn2c(=O)cc(C(C)C)[nH]c2c1-c1ccccc1	10.5 µM
COc1ccc(-c2cnc3cnc(-c4ccc(OC)nc4)cn23)cc1	8.79 µM
O=C(Nc1ccc(OC(F)(F)F)cc1)Nc1ccc2nc(-c3ccsc3)nn2c1	9.37 µM
CCOc1cccc2cc(C(C)Nc3ncnc4n[nH]cc34)oc12 (configuration not stated)	6.49 µM
O=C(Nc1ccccc1O)c1ccc(Cn2ccnc2)cc1	6.19 µM
COc1ccc(-c2cnc3sc(NCCc4ccc(S(N)(=O)=O)cc4)nn23)cc1OC	6.81 µM
Cc1cc(C)c2c(C)c(C(=O)Nc3cc(S(=O)(=O)N4CCCCC4)ccc3N(C)C)sc2n1	> 10 µM
CN(C)CCNc1ccnc2c(-c3ccc4ccccc4c3)cnn12	> 9.96 µM
COc1ccc(Sc2ccc(NC(=O)c3ccc(Cl)cc3Cl)cc2C#N)cc1	> 7.69 µM
CC(NC(=O)COc1ccc(-c2nnco2)cc1)c1ccc(Cl)cc1Cl (configuration not stated)	> 10 µM
COc1ccccc1NC(=O)NCc1nc(-c2ccccc2)c[nH]1	5.1 µM
CC(=O)c1sc(SCCS(=O)(=O)c2ccccc2)c2c1CC(C)(C)CC2=O	> 7.81 µM
CN1CCN(C(=O)c2cccc(-c3cnc4cnc(-c5ccc(Cl)cc5)cn34)c2)CC1	> 7.64 µM
Cc1cc(C)c(NC(=O)c2cc(-c3ccccc3)nn2-c2ccccc2)c(C)c1	> 10 µM
COc1ccc(-c2csc3ncnc(Sc4nnnn4CC4CCCO4)c23)cc1 (configuration not stated)	> 10 µM
Nc1ncc(-c2cc(C(F)(F)F)cc(C(F)(F)F)c2)cc1-c1cncc2ccccc12	> 7.62 µM
CCN1C(=O)N(CCc2ccccc2)C2(CCN(Cc3ccc(C)cc3)CC2)C1=O	> 8.14 µM
O=C(Nc1nc2cc(C(F)(F)F)ccc2n1Cc1ccco1)C1CCC1	4.08 µM
O=C(Nc1ccc(F)cc1F)c1cc(Cl)cc(Cl)c1O	> 10.4 µM
COc1ccc(C(=O)Nc2ccc(N3CCOCC3)cc2)cn1	> 10 µM
CCN(CC)Cc1ccccc1CNC(=O)c1cccc2ccccc12	> 10 µM
CC1c2ccsc2CCN1C(=S)NC(=O)c1ccc(C(C)(C)C)cc1 (configuration not stated)	> 8.86 µM
CC(C)c1ccc(NC(=O)c2ccc(N(C)C)c([N+](=O)[O-])c2)cc1	8.31 µM
O=[N+]([O-])c1cnc(Sc2nnc(SCc3cccc(C(F)(F)F)c3)s2)s1	> 7.56 µM
Cc1ccc2c(COC(=O)[C@@H]3CCCN3C(=O)c3cccs3)cc(=O)oc2c1	> 10 µM
